The values you see were collected from paper PMC9317966.

EC50 values, listed per item
target: human GST-AMPK α1β2γ1 (Homo sapiens, UniProt O43741+Q13131); construct: triply transfected with full-length AMPK α1 or α2 (NH2-terminal GST fusion, pDEST27 vector); full-length AMPK α1 or α2 (NH2-terminal GST fusion, pDEST27 vector), β1 or β2 (COOH-terminal FLAG fusion, pcDNA3.1 vector); FLAG (C); assay: Radiolabel SAMS kinase assay, GST-AMPK from HEK293T/17 cells immobilised on glutathione-Sepharose; conditions: immobilised α1β2γ1, 0–30 µM activator
Sequence (Q13131 whole entry, one chain of several, the tested form may be a part): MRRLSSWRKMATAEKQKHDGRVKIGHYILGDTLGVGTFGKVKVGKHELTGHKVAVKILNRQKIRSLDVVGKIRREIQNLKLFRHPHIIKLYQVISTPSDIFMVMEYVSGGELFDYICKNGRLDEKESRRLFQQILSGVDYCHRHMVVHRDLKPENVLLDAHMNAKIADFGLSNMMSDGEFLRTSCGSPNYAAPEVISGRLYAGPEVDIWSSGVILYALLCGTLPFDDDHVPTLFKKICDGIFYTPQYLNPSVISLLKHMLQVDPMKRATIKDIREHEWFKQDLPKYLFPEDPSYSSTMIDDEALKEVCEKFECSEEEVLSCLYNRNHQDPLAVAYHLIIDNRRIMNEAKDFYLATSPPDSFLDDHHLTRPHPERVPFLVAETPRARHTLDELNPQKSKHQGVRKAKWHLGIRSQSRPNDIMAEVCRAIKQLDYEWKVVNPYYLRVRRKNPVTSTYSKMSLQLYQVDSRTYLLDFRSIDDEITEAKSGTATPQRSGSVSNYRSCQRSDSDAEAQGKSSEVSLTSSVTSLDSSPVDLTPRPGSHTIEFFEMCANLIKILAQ
Sequence (O43741 whole entry, one chain of several, the tested form may be a part): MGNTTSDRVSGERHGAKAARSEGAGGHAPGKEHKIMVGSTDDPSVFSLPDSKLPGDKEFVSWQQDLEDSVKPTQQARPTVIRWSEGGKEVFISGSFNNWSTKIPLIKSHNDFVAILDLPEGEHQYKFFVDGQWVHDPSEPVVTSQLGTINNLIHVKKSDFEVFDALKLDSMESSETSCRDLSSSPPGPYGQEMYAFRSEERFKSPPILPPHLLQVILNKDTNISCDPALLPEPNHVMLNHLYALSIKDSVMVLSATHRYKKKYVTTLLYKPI
# do not omit the unit; it follows the number

CC(=O)NC1CC=C(c2ccc(-c3nc4nc(Oc5ccc(C)c(C(=O)O)c5)[nH]c4cc3Cl)cc2)CC1 (stereo not drawn) [MSG011] ... 249 nM
O[C@@H]1CO[C@H]2[C@@H]1OC[C@H]2Oc1nc2nc(-c3ccc(-c4ccccc4)cc3)c(Cl)cc2[nH]1 [MK-8722, reference compound] ... 2180 nM

Q. Form field: reported EC50 of CN(C)C(=O)C1(O)CCC(Oc2nc3nc(-c4ccc(C5=CCC(C(=O)O)CC5)cc4)c(Cl)cc3[nH]2)CC1 (stereo not drawn) [MSG012]
A. 232 nM

---

fold AMPK activation relative to vehicle values for the compounds below.
target: human GST-AMPK α2β1γ1 (Homo sapiens, UniProt P54646+Q9Y478); construct: triply transfected with full-length AMPK α1 or α2 (NH2-terminal GST fusion, pDEST27 vector); full-length AMPK α1 or α2 (NH2-terminal GST fusion, pDEST27 vector), β1 or β2 (COOH-terminal FLAG fusion, pcDNA3.1 vector); FLAG (C); made in house; host or cells: HEK293T/17 cells, transient triple transfection; experiment: Radiolabel SAMS kinase assay, GST-AMPK from HEK293T/17 cells immobilised on glutathione-Sepharose; format: biochemical; details: 1 µM compound
Sequence (P54646 whole entry, the tested form may be a part): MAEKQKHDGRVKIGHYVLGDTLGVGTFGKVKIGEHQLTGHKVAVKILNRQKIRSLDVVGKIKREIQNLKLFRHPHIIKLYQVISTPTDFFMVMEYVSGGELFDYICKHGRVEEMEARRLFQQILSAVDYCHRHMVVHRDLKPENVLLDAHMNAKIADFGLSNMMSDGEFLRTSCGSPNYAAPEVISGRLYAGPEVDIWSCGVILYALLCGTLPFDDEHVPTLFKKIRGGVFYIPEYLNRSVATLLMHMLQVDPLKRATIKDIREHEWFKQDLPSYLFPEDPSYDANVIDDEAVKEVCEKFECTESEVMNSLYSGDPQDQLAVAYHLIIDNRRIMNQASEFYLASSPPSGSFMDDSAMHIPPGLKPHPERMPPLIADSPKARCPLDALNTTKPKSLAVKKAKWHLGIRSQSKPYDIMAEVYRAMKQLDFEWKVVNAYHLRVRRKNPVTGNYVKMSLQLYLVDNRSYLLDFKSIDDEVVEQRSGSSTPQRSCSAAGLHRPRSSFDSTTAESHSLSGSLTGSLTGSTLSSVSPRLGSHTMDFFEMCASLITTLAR
Sequence (Q9Y478 whole entry, the tested form may be a part): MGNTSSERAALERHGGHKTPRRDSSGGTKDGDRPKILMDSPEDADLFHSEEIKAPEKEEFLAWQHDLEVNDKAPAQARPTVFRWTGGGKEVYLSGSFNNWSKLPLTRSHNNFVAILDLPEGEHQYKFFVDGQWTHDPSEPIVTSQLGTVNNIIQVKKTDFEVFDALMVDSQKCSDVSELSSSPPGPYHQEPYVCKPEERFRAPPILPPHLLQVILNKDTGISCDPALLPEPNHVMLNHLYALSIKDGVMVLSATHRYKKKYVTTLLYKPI
Sequence (P54619 whole entry partner, the tested form may be a part): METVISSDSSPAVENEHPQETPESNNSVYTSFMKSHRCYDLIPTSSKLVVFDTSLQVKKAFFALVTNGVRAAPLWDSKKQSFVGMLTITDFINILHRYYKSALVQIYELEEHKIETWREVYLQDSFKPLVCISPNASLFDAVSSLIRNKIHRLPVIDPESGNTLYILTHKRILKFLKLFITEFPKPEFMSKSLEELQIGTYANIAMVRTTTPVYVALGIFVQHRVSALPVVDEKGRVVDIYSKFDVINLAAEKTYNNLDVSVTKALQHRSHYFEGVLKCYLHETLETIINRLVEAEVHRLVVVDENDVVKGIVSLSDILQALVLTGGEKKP

Cc1ccc(Oc2nc3nc(-c4ccc(-c5ccccc5O)cc4)c(Cl)cc3[nH]2)cc1C(=O)O ... > 2.3 fold
CC(=O)NC1CC=C(c2ccc(-c3nc4nc(Oc5ccc(C)c(C(=O)O)c5)[nH]c4cc3Cl)cc2)CC1 (centres unmarked) ... > 2.2 fold
Cc1ccc(Oc2nc3nc(-c4ccc(C5=CCC(C(=O)O)CC5)cc4)c(Cl)cc3[nH]2)cc1C(=O)O (centres unmarked) ... > 2.2 fold

Here's the next entry for you.
Q. Any idea what its fold AMPK activation relative to vehicle is? The compound is COCCc1cccc(-c2nc3nc(Oc4ccc(C)c(C(=O)O)c4)[nH]c3cc2Cl)c1
A. ≤ 1.3 fold

---

biological target: GST-α1β1γ1 AMPK in solution (Homo sapiens, UniProt Q13131+Q9Y478); construct: triply transfected with full-length AMPK α1 or α2 (NH2-terminal GST fusion, pDEST27 vector); full-length AMPK α1 or α2 (NH2-terminal GST fusion, pDEST27 vector), β1 or β2 (COOH-terminal FLAG fusion, pcDNA3.1 vector); FLAG (C); test: In solution SAMS kinase assay, HEK293T/17-expressed GST-α1β1γ1 eluted from glutathione Sepharose; settings: 0-30 µM activator
Sequence (Q13131 whole entry, one chain of several, the tested form may be a part): as the sequence (Q13131 whole entry, one chain of several, the tested form may be a part) above
PROPERTY_LABEL: EC50 (nM)
// return numeric value only (unit: nM, not printed)

CC(=O)NC1CC=C(c2ccc(-c3nc4nc(Oc5ccc(C)c(C(=O)O)c5)[nH]c4cc3Cl)cc2)CC1 (centres unmarked) ... 25.2

Here is the next item to consider.
Q. Which value of EC50 has been reported for O[C@@H]1CO[C@H]2[C@@H]1OC[C@H]2Oc1nc2nc(-c3ccc(-c4ccccc4)cc3)c(Cl)cc2[nH]1 [MK-8722, reference compound] in the records?
A. 1740
